Data credit: patent US4705799A

Exercise: for every item that follows, state its recorded ED50.
- Test system: Escherichia coli
- Assay summary: In vivo efficacy of compounds administered subcutaneously in mouse intraperitoneal infections
- Test context: sc, 168 h; mouse i.p. Escherichia coli infection; subcutaneous; dosed at infection and 4 h post-infection; 7 days; read-out: ED50 (50 percent effective dose)

Quick note, ED50 for CC(=O)NCC1CN(c2ccc(Cl)cc2)C(=O)O1 (centres unmarked) [Example 87] landed at > 120 mg/kg

# ED50 (compound: CC(=O)c1ccc(N2CC(CNC(=O)C(Cl)Cl)OC2=O)cc1 (centres unmarked) [Example 172] ) is > 120 mg/kg

What the record says about CCCC(=O)c1ccc(N2CC(CNC(C)=O)OC2=O)cc1 (centres unmarked) [Example 138] : ED50 is > 120 mg/kg

The recorded ED50 for entry CCc1ccc(N2CC(CNC(=O)OC)OC2=O)cc1 (centres unmarked) [Example 83] equals > 12 mg/kg

What the record says about CSCC(=O)c1ccc(N2CC(CNC(C)=O)OC2=O)cc1 (single isomer, unassigned) [Example 161] : ED50 is > 120 mg/kg
